Molecular target: T1, human Y2 receptor (human, UniProt P49146 1-381)
T1 construct: whole, on cells; used as membrane fraction of hY2R/CHO cells; also called human NPY2R; hY2R
T1 sequence (looked up): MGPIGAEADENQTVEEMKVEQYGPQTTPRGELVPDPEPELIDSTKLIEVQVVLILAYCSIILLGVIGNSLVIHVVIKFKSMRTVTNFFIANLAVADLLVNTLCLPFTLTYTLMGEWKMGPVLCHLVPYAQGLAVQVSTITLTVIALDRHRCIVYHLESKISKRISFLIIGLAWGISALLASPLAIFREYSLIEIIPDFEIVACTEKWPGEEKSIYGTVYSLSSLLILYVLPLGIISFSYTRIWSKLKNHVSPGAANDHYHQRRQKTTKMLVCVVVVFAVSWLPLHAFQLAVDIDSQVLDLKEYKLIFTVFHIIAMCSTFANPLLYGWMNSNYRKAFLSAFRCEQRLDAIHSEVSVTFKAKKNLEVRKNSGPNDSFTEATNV
Assay: RBA: [125I]-PYY displacement, hY2R/CHO membranes
Non-standard residues stand in square brackets, D forms with d. No end group written: not given here. Tic = O=C(O)[C@@H]1Cc2ccccc2CN1; Cha = N[C@@H](CC1CCCCC1)C(=O)O; 4Amb = NCc1ccc(C(=O)O)cc1; Iva = CC[C@](C)(N)C(=O)O; Nle = CCCC[C@H](N)C(=O)O; Aib = CC(C)(N)C(=O)O
assayMetric: IC50 Ratio (vs PYY(3-36)) (ratio)
The response must be a number in ratio with no trailing unit.

Sample answers from the record:
>  <binder>
Ac-S[dP]RH[Iva][Cha]NL[Aib]TRQR[Cha]-NH2 (SMILES CC[C@](C)(NC(=O)[C@H](Cc1c[nH]cn1)NC(=O)[C@H](CCCNC(=N)N)NC(=O)[C@H]1CCCN1C(=O)[C@H](CO)NC(C)=O)C(=O)N[C@@H](CC1CCCCC1)C(=O)N[C@@H](CC(N)=O)C(=O)N[C@@H](CC(C)C)C(=O)NC(C)(C)C(=O)N[C@H](C(=O)N[C@@H](CCCNC(=N)N)C(=O)N[C@@H](CCC(N)=O)C(=O)N[C@@H](CCCNC(=N)N)C(=O)N[C@@H](CC1CCCCC1)C(N)=O)[C@@H](C)O, also called compound No. 175) [Ac-[D-Pro24, Iva27, Cha28,36, Aib31]-PYY(23-36)]

>  <resultUnits>
ratio

>  <IC50 Ratio (vs PYY(3-36))>
6.4

$$$$
>  <binder>
Ac-FRAYINLITRQRY-NH2 (also called compound No. 34) [Ac-[Phe24, Ala26, Ile28,31]-PYY(24-36)]

>  <resultUnits>
ratio

>  <IC50 Ratio (vs PYY(3-36))>
25

$$$$
>  <binder>
[4Amb]RAYINLITRQRF-NH2 (N-terminus assumed; SMILES CC[C@H](C)[C@H](NC(=O)[C@H](Cc1ccc(O)cc1)NC(=O)[C@H](C)NC(=O)[C@H](CCCNC(=N)N)NC(=O)c1ccc(CN)cc1)C(=O)N[C@@H](CC(N)=O)C(=O)N[C@@H](CC(C)C)C(=O)N[C@H](C(=O)N[C@H](C(=O)N[C@@H](CCCNC(=N)N)C(=O)N[C@@H](CCC(N)=O)C(=O)N[C@@H](CCCNC(=N)N)C(=O)N[C@@H](Cc1ccccc1)C(N)=O)[C@@H](C)O)[C@@H](C)CC, also called compound No. 6) [4-Aminomethylbenzoyl-[Ala26, Ile28,31, Phe36]-PYY(25-36)]

>  <resultUnits>
ratio

>  <IC50 Ratio (vs PYY(3-36))>
5.1

$$$$
>  <binder>
[4Amb]RA[Nle]INLITRQRY-NH2 (N-terminus assumed; SMILES CCCC[C@H](NC(=O)[C@H](C)NC(=O)[C@H](CCCNC(=N)N)NC(=O)c1ccc(CN)cc1)C(=O)N[C@H](C(=O)N[C@@H](CC(N)=O)C(=O)N[C@@H](CC(C)C)C(=O)N[C@H](C(=O)N[C@H](C(=O)N[C@@H](CCCNC(=N)N)C(=O)N[C@@H](CCC(N)=O)C(=O)N[C@@H](CCCNC(=N)N)C(=O)N[C@@H](Cc1ccc(O)cc1)C(N)=O)[C@@H](C)O)[C@@H](C)CC)[C@@H](C)CC, also called compound No. 43) [4-Aminomethylbenzoyl-[Ala26, Nle27, Ile28,31]-PYY(25-36)]

>  <resultUnits>
ratio

>  <IC50 Ratio (vs PYY(3-36))>
4.6

$$$$

Consider now this further binder.
Return reported IC50 Ratio (vs PYY(3-36)); argument: [4Amb]RAYINLITRQR[Tic]-NH2 (N-terminus assumed; SMILES CC[C@H](C)[C@H](NC(=O)[C@H](Cc1ccc(O)cc1)NC(=O)[C@H](C)NC(=O)[C@H](CCCNC(=N)N)NC(=O)c1ccc(CN)cc1)C(=O)N[C@@H](CC(N)=O)C(=O)N[C@@H](CC(C)C)C(=O)N[C@H](C(=O)N[C@H](C(=O)N[C@@H](CCCNC(=N)N)C(=O)N[C@@H](CCC(N)=O)C(=O)N[C@@H](CCCNC(=N)N)C(=O)N1Cc2ccccc2C[C@H]1C(N)=O)[C@@H](C)O)[C@@H](C)CC, also called compound No. 17) [4-Aminomethylbenzoyl-[Ala26, Ile28,31, Tic36]-PYY(25-36)]
180
